B1: FUT8 (parent)
chain: YPSYKVREKIETVKYPTYPEAEK

Variants of: B1
Test: protein stability index of a GFP-peptide fusion (GPS, HEK-293T) (PSI 1-6); higher = more stable;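 note: lentivirally expressed fusions sorted by FACS into six bins by GFP to DsRed ratio, PSI derived from sequencing read proportions per bin multiplied by bin number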
Settings: c terminus: native
Kindly return Yes if reported protein stability index is no lower than 4; return No if it is lower.

Below, 8 variants whose answers are already recorded.
Would you say "P16E" shows protein stability index at minimum 4?
Yes

Next up: "S3P"
No

Now the variant "R7I"
No

Same thing, different variant: "Y15W"
No

Now the same for "E8S"
No

Now this one: "E22P"
Yes

Now the variant "E11I"
No

What do you have for "K5T" ?
Yes

Others:
Entry "R7Y" : is its protein stability index no less than 4?
No

"Y1H" ?
Yes

Try this variant too: "K23S"
No

Next variant up: "Y15C"
No

Then what about the variant "E20M" ?
No

Source listed as the supplement of paper PMC10567573.
